- Tested on: SK-OV-3 ovarian
- testDescription: NCI tumour cell line growth inhibition, 48 h
reportedEndpoint: TGI

compound: C=C1C(=O)O[C@H]2[C@H]1CC/C(COC(=O)CCCCCCCC(=O)OC/C1=C/CC[C@@]3(C)O[C@H]3[C@H]3OC(=O)C(=C)[C@@H]3CC1)=C\CC[C@@]1(C)O[C@@H]21
result: 34.3 µM
--
compound: O=C(OCc1ccccc1)c1ccc(NCc2cc(O)ccc2O)cc1
result: 11.2 µM
--
compound: NCCCC(N=Cc1nc(-c2ccccc2)oc1O)C(=O)O (centres undefined)
result: > 100 µM

Field TGI (entry C[C@H](CCC(=O)NCCS(=O)(=O)O)[C@H]1CC[C@H]2[C@@H]3[C@H](O)C[C@@H]4C[C@H](O)CC[C@]4(C)[C@H]3CC[C@]12C ) reads > 100 µM

###

- System: 786-0 renal
- testDescription: NCI tumour cell line growth inhibition, 48 h
reportedEndpoint: TGI

compound: CC(=O)CCc1ccc(Oc2c3c(nc4ccccc24)OCC3)cc1
reportedEndpoint: TGI
result: > 100 µM
//
compound: O=c1[nH]c2ccc(Cl)cc2o1
reportedEndpoint: TGI
result: > 100 µM
//
compound: O=c1[nH]nc(-c2ccccc2)n1-c1cccc([N+](=O)[O-])c1
reportedEndpoint: TGI
result: > 100 µM

Would you mind listing TGI for each of the following compounds?
1. COc1ccc2c(C)cc(N/N=C/c3ccc(C)s3)nc2c1
2. COc1ccc(-c2c(-c3ccccc3)c(C)nc3[nH]c(=S)[nH]c(=S)c23)cc1OC

Response given:
["31.6 µM", "> 100 µM"]

// sample OC(CN1CCCC2CCCCC21)c1cc2ccccc2c2ccccc12 (stereo unspecified) , its TGI was 3.6 µM

###

- Test system: HOP-92 NSCLC
- testDescription: NCI tumour cell line growth inhibition, 48 h
reportedEndpoint: TGI

Recorded TGI, per entry:
compound: C[C@H](CCC(=O)NCCS(=O)(=O)O)[C@H]1CC[C@H]2[C@@H]3[C@H](O)C[C@@H]4C[C@H](O)CC[C@]4(C)[C@H]3CC[C@]12C
measuredOn: HOP-92 NSCLC
reportedEndpoint: TGI
result: > 100 µM

compound: COc1ccc(/C=C2\COc3ccc(O)c(O)c3C2=O)cc1OC
measuredOn: HOP-92 NSCLC
reportedEndpoint: TGI
result: 5.91 µM

compound: CN(C)C(=S)/N=c1\ssc(=S)n1Cc1ccco1
measuredOn: HOP-92 NSCLC
reportedEndpoint: TGI
result: > 100 µM

compound: COc1ccc2nc3n(c2c1)C(c1c(F)cccc1F)SC3 (stereo not given)
measuredOn: HOP-92 NSCLC
reportedEndpoint: TGI
result: > 100 µM

compound: COc1c2cc([N+](=O)[O-])cc1CN(C(=O)C(F)(F)F)CCOCCN(C(=O)C(F)(F)F)C2
measuredOn: HOP-92 NSCLC
reportedEndpoint: TGI
result: > 100 µM

The following compounds each have a reported value; give each one's TGI.
1. Cc1cc(N(CCC#N)CCC#N)ccc1/C=C(\NC(=O)/C=C/c1ccccc1)C(=O)Nc1ccc(Cl)cc1
2. CC1=NN(C(=O)CC(=O)NC(=O)/C=C\c2ccccc2)C(=O)C1N=Nc1ccc([N+](=O)[O-])cc1 (stereo not given)
3. Cc1ccc(C)n2c1nc1cc3ccccc3cc12
4. c1ccc(C2=NN=C3C(c4ccccc4)=Nc4ccccc4N3C2)cc1

Response given:
> 100 µM
97.4 µM
> 100 µM
> 88.9 µM

Given item CCOC(=O)C1=C(O)C(=O)c2ccoc2C1=O , the value recorded as its TGI is > 100 µM

###

Please respond with reported TGI for every item in the list.
- Test system: HT29 colon
- testDescription: NCI tumour cell line growth inhibition, 48 h
One number for each entry, in µM.

compound: N#C/C(=C\c1ccc([N+](=O)[O-])o1)c1n[nH]c(Cc2ccccc2)n1
TGI, µM: 2.83
//
compound: CC(C)c1[nH]nc2c(NCc3ccc(-c4ccccn4)cc3)nc(SCCN)nc12
TGI, µM: 10.1
//
compound: COc1cc(C2c3cc4c(cc3[C@@H](Nc3ccc([N+](=O)[O-])cc3)C3COC(=O)[C@H]23)OCO4)cc(OC)c1O (stereo not given in full)
TGI, µM: 7.81

Then there is this compound:
For record O=C(Nc1ccc([N+](=O)[O-])cc1[N+](=O)[O-])C(=O)C(C(=O)c1ccc(Cl)c(Cl)c1)C1OC(=O)c2ccccc21 (stereo not given) the listed TGI is 71.1

###

- System: UACC-62 melanoma
- testDescription: NCI tumour cell line growth inhibition, 48 h
Give measured TGI for each item. Keep answers brief.
Answers are plain numbers, in µM.

Worked examples, 3 molecules total:
molecule: COC(=O)c1sc2c(c1C(=O)OC)C(=NC(C)(C)C)SC2=NC(C)(C)C
resultNumber: 33.2
--
molecule: CN(C)CC1C(=O)O[C@H]2[C@H]1CC/C(COC(=O)NCc1ccc(Cn3c(=O)sn(CCCI)c3=O)cc1)=C\CC[C@@]1(C)O[C@@H]21 (stereo not given in full)
resultNumber: 3.97
--
molecule: COc1c(B(O)O)cccc1-c1nc2ccc3[nH]ncc3c2c2c1CCCC2
resultNumber: 10.2

Each of the following entries comes with a recorded value; kindly state TGI for each.
1. CC(C)c1[nH]nc2c(NCc3ccc(-c4ccccn4)cc3)nc(SCCN(C)C)nc12
2. C[C@H]1COCCN1c1nc(-c2cnc(N)cc2C(F)F)nc(N2CCOCC2)n1

Response given:
1: 0.4; 2: 0.401

###

- Tested on: HCC-2998 colon
- testDescription: NCI tumour cell line growth inhibition, 48 h
For each of the compounds below, state its TGI.
Numbers only, in µM.

Worked cases, answers included:
compound: CC1(C)OC[C@H](COCOP2(=O)Oc3ccc4ccccc4c3-c3c(ccc4ccccc34)O2)O1
resultNumber: 31.3
--
compound: CC1=NN(c2cccc(Cl)c2)C(=O)/C1=C\C=C\c1ccccc1
resultNumber: 3.45

Each compound below has a reported value. Please supply its TGI.
1. C=C1C(=O)O[C@H]2[C@H]1CC/C(COC(=O)CCCCCCCC(=O)OC/C1=C/CC[C@@]3(C)O[C@H]3[C@H]3OC(=O)C(=C)[C@@H]3CC1)=C\CC[C@@]1(C)O[C@@H]21
2. Cc1ccnc2c(NC(C)CCCN)cc(O)c(O)c12 (stereo unspecified)
3. COc1c(B(O)O)cccc1-c1nc2ccc3[nH]ncc3c2c2c1CCCC2

Response given:
[3.88, 32, 6.12]

###

- Test system: MOLT-4 leukemia
- testDescription: NCI tumour cell line growth inhibition, 48 h
reportedEndpoint: TGI (µM)
One number for each entry, in µM.

Solved entries:
itemSmiles: CCC[CH2][Sn]([CH2]CCC)([O]C(=O)c1cc(F)ccc1F)[O]C(=O)c1cc(F)ccc1F
TGI, µM: 2.01
//
itemSmiles: CCCCCN(CCCCC)C(=O)[C@H](CCC(=O)O)NC(=O)c1cc2ccccc2[nH]1
TGI, µM: 64.4
//
itemSmiles: CC(C)c1[nH]nc2c(NCc3ccc(-c4ccccn4)cc3)nc(SCCN(C)C)nc12
TGI, µM: 0.202

Now for the molecule whose TGI we want.
Sample O=C(N/N=C/c1cc(Cl)ccc1O)c1ccccc1Nc1ccnc(C(F)(F)F)c1 ; TGI observed: 6.27

###

Record form. Attribute: TGI. Fill in for each entry.
- Tested on: SR leukemia
- testDescription: NCI tumour cell line growth inhibition, 48 h

Solved entries (count: 4):
compound: COC(=O)[C@@H](NC(=O)[C@H](N)Cc1ccc(N(CCCl)CCCl)cc1)C(C)C
reportedEndpoint: TGI
result: > 38.6 µM
//
compound: COC(=O)C12C34C=CC5(CCC6(C=CC1(CC3)O6)C52C(=O)OC)O4 (stereo unspecified)
reportedEndpoint: TGI
result: > 100 µM
//
compound: C=C1C(=O)O[C@@H]2CC(CO)=C([C@@H](C)CCCO)[C@@H](OC(=O)/C(C)=C\C)[C@H]12
reportedEndpoint: TGI
result: 8.22 µM
//
compound: OC(CN1CCCC2CCCCC21)c1cc2ccccc2c2ccccc12 (stereo unspecified)
reportedEndpoint: TGI
result: 3.43 µM

Please state TGI for every compound in the list that follows.
1. Nc1n[nH]c2c(C(=O)Nc3ccc(Cl)cc3)c(N)n(N)c(=O)c12
2. CSc1nnc(-c2cc3c([nH]c4ccccc43)c(-c3cccc(O)c3)n2)n1-c1ccc(C)cc1
3. O=C(Sc1n[nH]c(=O)[nH]c1=O)c1cccc2nc3ccccc3nc12
4. CNCC(=O)NC(CO)C(=O)NC(CO)C(=O)NC1C(C(N)=O)OC(n2ccc(N)nc2=O)C(O)C1O (stereo unspecified)
5. CC1(C2COC(=O)C2)SCCCS1 (stereo unspecified)

Response given:
> 100 µM
> 100 µM
> 100 µM
> 50 µg/mL
> 100 µM

Please report TGI for every entry that follows.
1. Clc1cc(OCc2nn3c(Cc4ccccc4)nnc3s2)c(Cl)cc1OCc1nn2c(Cc3ccccc3)nnc2s1
2. CC(=O)c1c2c(cc3c1CC1(Cc4cc5c(cc4C1)C(=O)CCC5)C3)CCCC2 (stereo unspecified)

Response given:
1: 10.4 µM; 2: 5.53 µM

Required: TGI, one value per compound below.
1. C=C(C)C1CCC2=CC(CC3(C)OC3C3=CC(C(=O)OC)=C(C1)O3)OC2=O (stereo unspecified)
2. CCOC(=O)[C@@H]1ON2O[C@@H](OC3CCCCC3c3ccccc3)C[C@H]3OC(=O)[C@@H]1C32 (stereo partly specified)
3. COc1c(B(O)O)cccc1-c1nc2ccc3[nH]ncc3c2c2c1CCCC2
4. CC(NP(=O)(c1ccccc1)c1ccccc1)c1ccccc1 (stereo unspecified)
5. CCOC(=O)C1=C(O)C(=O)c2ccoc2C1=O

Response given:
> 100 µM
> 100 µM
13.9 µM
> 100 µM
> 100 µM
